# Study target: T1, recombinant C-terminal ApoE fragment L198-HIS (ApoE-L198-H299-10xHIS) (human, UniProt P02649 216-317)
# T1 construct: also called L198-HIS fragment
# T1 sequence (P02649 other isoform, or with tags, fused parts or gaps limits assumed): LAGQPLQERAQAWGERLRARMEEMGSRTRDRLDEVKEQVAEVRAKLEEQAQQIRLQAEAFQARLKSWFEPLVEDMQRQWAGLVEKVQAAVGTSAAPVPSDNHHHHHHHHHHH
# Method summary: direct ELISA, L198-HIS coated at 0.1 µM
Test readout: EC50 (µg/mL)
# output: bare number, implied unit µg/mL

response.value for 15F8, monoclonal anti-L198 antibody (antibody, IgG2c, V domains shown) VH: EVKLEESGGGLVHPGGSMKLSCVGSGFTFSNYWMNWVRQSPEKGLEWVAQIKLRSDNYATHYAESVKGKFTISRDDAKSSVYLQMDNLRAEDTGIYYCSHHYLDSGGYFDVWGTGTSVTVSS VL: DIVMTQSQKFMSTSVGDRVSVTCKASQNVGINVAWYQDKPGQSPKGLILSASYRYSGVPDRFTGSGSGTDFTLTISNVQSEDLAEYFCQQYNSYPYTFGGGTKLEIK (field: EC50) = 0.015

Hey, just so you know, these numbers are from patent US20220242939A1.
